meta.source: patent US20240124597A1

Below: a set of entries, each annotated with reported kon.
# assayTarget: T1, human-CD40-monomer protein (human, UniProt P25942 21-193, limits assumed)
# T1 construct: Soluble monomer generated in house, used as SPR analyte; also called hCD40; hCD40-monomer
# T1 sequence (P25942 21-193 limits assumed): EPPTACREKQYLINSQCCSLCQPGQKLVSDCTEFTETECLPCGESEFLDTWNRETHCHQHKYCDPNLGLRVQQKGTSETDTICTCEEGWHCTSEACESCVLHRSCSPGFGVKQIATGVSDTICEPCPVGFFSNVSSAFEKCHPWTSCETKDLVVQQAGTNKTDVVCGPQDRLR
# experimentalDetails: SPR, Ab captured on protein A, hCD40 monomer 500 and 50 nM, 1:1 fit; supernatant
outcomeMeasure: kon (M⁻¹ s⁻¹)

binder | outcomeMeasure | unitText | result
Y12XX-hz22 (antibody, human IgG1, kappa, V domains shown, Humanized, IgG1-P238K; supernatant sample) VH: QVQLVQSGAEVKKPGSSVKVSCKASGYAFTSYWMHWVRQAPGQGLEWMGYINPTTGYSAYNQKFKDKATLTADKSTSTAYMELSSLRSEDTAVYYCARWDARPFAYWGQGTLVTVSS VL: DIQMTQSPSFLSASVGDRVTITCKASQDVSTAVAWYQQKPGKAPKLLIYSASYRYTGVPSRFSGSGSGTDFTLTISSLQPEDFATYYCQQHYSTPWTFGGGTKVEIKR | kon | M⁻¹ s⁻¹ | 370000
Y12XX-hz12 (antibody, human IgG1, kappa, V domains shown, Humanized, IgG1-P238K; supernatant sample) VH: QVQLVQSGAEVKKPGSSVKVSCKASGYAFTSYWMHWVRQAPGQGLEWMGQINPSQGRSQYNEKFKTRVTITADKSTSTAYMELSSLRSEDTAVYYCARWGLQPFAYWGQGTLVTVSS VL: DIQMTQSPSSLSASVGDRVTITCKASQDVSTAVAWYQQKPGKAPKLLIYSASYRYTGVPSRFSGSGSGTDFTFTISSLQPEDIATYYCQQHYSTPWTFGGGTKVEIKR | kon | M⁻¹ s⁻¹ | 170000
